Test system: VCaP cells
test summary: VCaP growth inhibition assay
Format: cell-based
settings: 30 pM R1881, 9 days, CTG
pIC50: −log10 of the molar value.
// pIC50 lookup, one value per entry

Field: example entries. Status: answers known.
molecule	experimental system	pIC50
COc1cc(OC2C(C)(C)C(NC(=O)c3cnc(N4CCC(CN5CCC(n6nc(N7CCCc8cc(-c9cnn(C)c9)c(C(F)F)cc87)c7c6CCN(C(C)=O)C7)CC5)C(C)(C)C4)nc3)C2(C)C)ccc1C#N (stereo not drawn) [Compound 360]	VCaP cells	≥ 10.00
COc1cc(OC2C(C)(C)C(NC(=O)c3ccc(N4CCN(CCc5ccc(-c6cc7c(cn6)N(c6nn(C8CCOCC8)c8c6CN(C(C)=O)CC8)CCC7)cn5)CC4)cc3)C2(C)C)ccc1C#N (stereo not drawn) [Compound 251]	VCaP cells	9.00 to 10.00

Please find the next molecule below.
Problem: Give pIC50 only, for Cn1c(=O)sc2ccc(N3CCCc4cc(-c5ccc(CCC6CCN(c7ncc(C(=O)NC8C(C)(C)C(Oc9ccc(C#N)c(Cl)c9)C8(C)C)cn7)CC6)nc5)c(C(F)F)cc43)cc21 (stereo not drawn) [Compound 236] , using VCaP cells data.
Solution: < 7.00

====

Test system: VCaP cells
test summary: VCaP growth inhibition assay
Assay type: cell-based
settings: 30 pM R1881, 9 days, CTG
measurement name: IC50

Field: example entries. Status: answers known.
compound	result
CC(=O)N1CCc2c(c(N3CCCc4cc(-c5cnn(C)c5)c(Cl)cc43)nn2C2CCN(CC3CCN(c4ncc(C(=O)NC5C(C)(C)C(Oc6ccc(C#N)c(Cl)c6)C5(C)C)cn4)CC3)CC2)C1 (stereo not shown)	0.1 to 1 nM
CNC(=O)N1CCc2c(c(N3CCCc4cc(-c5cnn(C)c5)c(C(F)F)cc43)nn2C2CCN(CCc3ncc(C(=O)NC4C(C)(C)C(Oc5ccc(C#N)c(Cl)c5)C4(C)C)cn3)CC2)C1 (stereo not shown)	> 100 nM
CNC(=O)N1CCc2c(c(N3CCCc4cc(-c5cnn(C)c5)c(C(F)F)cc43)nn2C2CCN(C(=O)CC3CCN(c4ncc(C(=O)NC5C(C)(C)C(Oc6ccc(C#N)c(Cl)c6)C5(C)C)cn4)CC3)CC2)C1 (stereo not shown)	≤ 0.1 nM
CNC(=O)N1CCc2c(c(N3CCCc4cc(-c5cnn(C)c5)c(C(F)F)cc43)nn2C2CCN(C(=O)COCCOCCCN3CCN(c4ncc(C(=O)NC5C(C)(C)C(Oc6ccc(C#N)c(Cl)c6)C5(C)C)cn4)CC3)CC2)C1 (stereo not shown)	0.1 to 1 nM
Cn1c(=O)n(C)c2cc(N3CCCc4cc(-c5ccc(CCC6CCN(c7ncc(C(=O)NC8C(C)(C)C(Oc9ccc(C#N)c(Cl)c9)C8(C)C)cn7)CC6)nc5)ncc43)ccc21 (stereo not shown)	> 100 nM

Problem: Using the record for Cn1c(=O)n(C)c2cc(N3CCCc4cc(-c5ccc(CCC6CCN(c7ncc(C(=O)NC8C(C)(C)C(Oc9ccc(C#N)c(Cl)c9)C8(C)C)cn7)CC6)nc5)c(C(F)F)cc43)ccc21 (stereo not shown) , state its measured IC50.
Solution: > 100 nM

Problem: Using the record for CC(=O)N1CCc2c(c(N3CCCc4cc(-c5cnn(C)c5)c(C(F)F)cc43)nn2C2CC3(C2)CN(CC2CC4(C2)CN(c2ncc(C(=O)NC5C(C)(C)C(Oc6ccc(C#N)c(Cl)c6)C5(C)C)cn2)C4)C3)C1 (stereo not shown) , state its measured IC50.
Solution: ≤ 0.1 nM

Problem: Using the record for CC(=O)N1CCc2c(c(N3CCCc4cc(-c5cnn(C)c5)c(C(F)F)cc43)nn2C2CCC(N(C)C3CCN(c4ncc(C(=O)NC5C(C)(C)C(Oc6ccc(C#N)c(Cl)c6)C5(C)C)cn4)CC3)CC2)C1 (stereo not shown) , state its measured IC50.
Solution: ≤ 0.1 nM

Problem: Using the record for CC(=O)N1CCc2c(c(N3CCCc4cc(-c5cnn(C)c5)c(C)cc43)nn2C2CCN(CC3CCN(c4ncc(C(=O)NC5C(C)(C)C(Oc6ccc(C#N)c(Cl)c6C)C5(C)C)cn4)CC3(C)C)CC2)C1 (stereo not shown) , state its measured IC50.
Solution: ≤ 0.1 nM

Problem: Using the record for CC(=O)N1CCc2c(c(-c3cccc4cc(-c5cnn(CC6CCN(c7ncc(C(=O)NC8C(C)(C)C(Oc9ccc(C#N)c(Cl)c9)C8(C)C)cn7)CC6)c5)ncc34)nn2C)C1 (stereo not shown) , state its measured IC50.
Solution: 0.1 to 1 nM

Attribution: patent US20250129070A1
